Molecular target: Mycobacterial beta-ketoacyl-[acyl-carrier-protein] synthase III (Mycobacterium tuberculosis) (UniProt P9WNG3)
Sequence (P9WNG3 whole entry): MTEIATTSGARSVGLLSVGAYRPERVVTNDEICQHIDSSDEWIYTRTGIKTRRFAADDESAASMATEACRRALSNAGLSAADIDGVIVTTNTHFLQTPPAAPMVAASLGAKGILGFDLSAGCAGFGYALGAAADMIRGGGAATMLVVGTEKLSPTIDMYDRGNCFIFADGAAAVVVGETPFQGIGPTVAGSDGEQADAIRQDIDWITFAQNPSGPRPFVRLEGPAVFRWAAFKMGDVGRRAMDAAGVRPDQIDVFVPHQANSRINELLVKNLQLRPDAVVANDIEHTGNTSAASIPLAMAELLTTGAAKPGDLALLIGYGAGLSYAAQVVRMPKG
Assay: Inhibitory activity against FabH from Mycobacterium tuberculosis H37Rv at 100 uM
Activity calls are given as the source filed them. The calls are words filed in the database; no cut-off is given here.
parameter: inhibition

Answered examples (5):
1) CC(C)=CCC1(C)SC(O)=C(C)C1=O (stereo not drawn)	inactive
2) CCCCCCC1(C)SC(O)=C(C)C1=O (stereo not drawn)	inactive
3) CC1=C(O)C(C)(Cc2ccc(Cl)c(Cl)c2)SC1=O (stereo not drawn)	< 30%
4) CCCCCCCCC1(C)SC(O)=C(C)C1=O (stereo not drawn)	< 30%
5) CC1=C(O)C(C)(C2CCCCC2)SC1=O (stereo not drawn)	< 30%

Record inhibition per entry; entries follow.
1. CC(C)=CCC/C(C)=C/CC/C(C)=C/CC1(C)SC(O)=C(C)C1=O (stereo not drawn)
2. C=CCC1(C)SC(=O)C(C)=C1O (stereo not drawn)
3. CC1=C(O)C(C)(C/C=C/c2ccccc2)SC1=O (stereo not drawn)
4. C=CCCCC1(C)SC(=O)C(C)=C1O (stereo not drawn)
5. CCCCCCCCCCC1(C)SC(O)=C(C)C1=O (stereo not drawn)

1: inactive; 2: inactive; 3: inactive; 4: inactive; 5: < 30%

---

Target: 3-oxoacyl-[acyl-carrier-protein] synthase 3 (Escherichia coli, UniProt C3TDZ2)
Sequence (C3TDZ2 whole entry): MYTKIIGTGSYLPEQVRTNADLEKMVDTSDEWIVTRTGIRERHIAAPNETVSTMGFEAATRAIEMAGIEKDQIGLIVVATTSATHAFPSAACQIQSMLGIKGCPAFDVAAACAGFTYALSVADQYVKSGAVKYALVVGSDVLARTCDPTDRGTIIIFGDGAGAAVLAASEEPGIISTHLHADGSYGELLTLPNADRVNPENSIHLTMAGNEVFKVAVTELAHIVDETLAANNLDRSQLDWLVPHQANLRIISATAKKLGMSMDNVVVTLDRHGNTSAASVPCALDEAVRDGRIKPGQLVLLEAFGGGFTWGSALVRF
pIC50: −log10 of the molar value.
Please go through the items and note down their pIC50.

Answered examples (6):
1) CC1=C(O)C(C)(Cc2cccc(C)c2)SC1=O (configuration not stated)	< 3.00
2) CC1=C(O)C(C)(Cc2ccc(Cl)c(Cl)c2)SC1=O (configuration not stated)	< 4.00
3) CCCCCC(C)C1(C)SC(O)=C(C)C1=O (configuration not stated)	< 3.00
4) COc1ccc(CC2(C)SC(O)=C(C)C2=O)cc1 (configuration not stated)	< 3.00
5) CCCCCCCCCCC(C)C1(C)SC(O)=C(C)C1=O (configuration not stated)	4.00
6) CCCCCCCCCC1(C)SC(O)=C(C)C1=O (configuration not stated)	< 4.00

Look up and state reported pIC50 for CCCCCCCCC(C)C1(C)SC(O)=C(C)C1=O (configuration not stated)
< 3.00

---

Target: 3-oxoacyl-[acyl-carrier-protein] synthase 2 (Mycobacterium tuberculosis) (UniProt P9WQD7)
Sequence (P9WQD7 whole entry): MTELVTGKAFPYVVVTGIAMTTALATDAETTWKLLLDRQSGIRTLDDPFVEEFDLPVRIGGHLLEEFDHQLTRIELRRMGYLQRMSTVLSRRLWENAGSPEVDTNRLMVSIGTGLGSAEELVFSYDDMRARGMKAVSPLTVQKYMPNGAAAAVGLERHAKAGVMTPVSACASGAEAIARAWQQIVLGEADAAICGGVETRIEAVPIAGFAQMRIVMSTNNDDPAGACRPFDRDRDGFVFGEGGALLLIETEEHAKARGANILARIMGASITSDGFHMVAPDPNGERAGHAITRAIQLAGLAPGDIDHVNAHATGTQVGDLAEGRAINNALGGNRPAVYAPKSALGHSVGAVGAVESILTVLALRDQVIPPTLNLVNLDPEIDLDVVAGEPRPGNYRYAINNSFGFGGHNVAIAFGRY
Assay: Inhibitory activity against KasB from Mycobacterium tuberculosis H37Rv at 100 uM
Active and inactive are the calls of the source. No cut-off for these calls is given here.
parameter: inhibition

1) CC1=C(O)C(C)(Cc2ccc(C(F)(F)F)cc2)SC1=O (stereo not drawn)	inactive
2) CC1=C(O)C(C)(C2CCCCC2)SC1=O (stereo not drawn)	inactive
3) C=CCCCCC1(C)SC(=O)C(C)=C1O (stereo not drawn)	inactive
4) C=CCC1(C)SC(=O)C(C)=C1O (stereo not drawn)	inactive

Record inhibition per entry; entries follow.
1. CCC(C)C1(C)SC(O)=C(C)C1=O (stereo not drawn)
2. C=CC(C)CC1(C)SC(O)=C(C)C1=O (stereo not drawn)
3. CC1=C(O)SC(C)(C(C)C)C1=O (stereo not drawn)
4. CCCCCCCCC1(C)SC(O)=C(C)C1=O (stereo not drawn)
5. CCCCCCCCCCC1(C)SC(O)=C(C)C1=O (stereo not drawn)
6. C=CC(C)C[C@@]1(C)SC(O)=C(C)C1=O (stereo partly drawn)
7. CC(C)=CCC/C(C)=C/CC/C(C)=C/CC1(C)SC(O)=C(C)C1=O (stereo not drawn)

["inactive", "inactive", "inactive", "inactive", "inactive", "inactive", "< 30%"]

Record inhibition per entry; entries follow.
1. C/C=C/CC1(C)SC(O)=C(C)C1=O (stereo not drawn)
2. CC1=C(O)C(C)(C/C=C/c2ccccc2)SC1=O (stereo not drawn)
3. C=CCCCC1(C)SC(=O)C(C)=C1O (stereo not drawn)
4. C=C(C)CC1(C)SC(O)=C(C)C1=O (stereo not drawn)
5. CC[C@H](C)CC1(C)SC(O)=C(C)C1=O (stereo partly drawn)
6. CC/C(C)=C/[C@@]1(C)SC(O)=C(C)C1=O
7. CCCCCCCCCCCCC1(C)SC(O)=C(C)C1=O (stereo not drawn)
8. CC1=C(O)SC(C)(CC(C)C)C1=O (stereo not drawn)

["inactive", "inactive", "inactive", "inactive", "inactive", "inactive", "inactive", "inactive"]

---

Biological target: Fatty acid synthase (Homo sapiens)
Sequence (P49327 whole entry): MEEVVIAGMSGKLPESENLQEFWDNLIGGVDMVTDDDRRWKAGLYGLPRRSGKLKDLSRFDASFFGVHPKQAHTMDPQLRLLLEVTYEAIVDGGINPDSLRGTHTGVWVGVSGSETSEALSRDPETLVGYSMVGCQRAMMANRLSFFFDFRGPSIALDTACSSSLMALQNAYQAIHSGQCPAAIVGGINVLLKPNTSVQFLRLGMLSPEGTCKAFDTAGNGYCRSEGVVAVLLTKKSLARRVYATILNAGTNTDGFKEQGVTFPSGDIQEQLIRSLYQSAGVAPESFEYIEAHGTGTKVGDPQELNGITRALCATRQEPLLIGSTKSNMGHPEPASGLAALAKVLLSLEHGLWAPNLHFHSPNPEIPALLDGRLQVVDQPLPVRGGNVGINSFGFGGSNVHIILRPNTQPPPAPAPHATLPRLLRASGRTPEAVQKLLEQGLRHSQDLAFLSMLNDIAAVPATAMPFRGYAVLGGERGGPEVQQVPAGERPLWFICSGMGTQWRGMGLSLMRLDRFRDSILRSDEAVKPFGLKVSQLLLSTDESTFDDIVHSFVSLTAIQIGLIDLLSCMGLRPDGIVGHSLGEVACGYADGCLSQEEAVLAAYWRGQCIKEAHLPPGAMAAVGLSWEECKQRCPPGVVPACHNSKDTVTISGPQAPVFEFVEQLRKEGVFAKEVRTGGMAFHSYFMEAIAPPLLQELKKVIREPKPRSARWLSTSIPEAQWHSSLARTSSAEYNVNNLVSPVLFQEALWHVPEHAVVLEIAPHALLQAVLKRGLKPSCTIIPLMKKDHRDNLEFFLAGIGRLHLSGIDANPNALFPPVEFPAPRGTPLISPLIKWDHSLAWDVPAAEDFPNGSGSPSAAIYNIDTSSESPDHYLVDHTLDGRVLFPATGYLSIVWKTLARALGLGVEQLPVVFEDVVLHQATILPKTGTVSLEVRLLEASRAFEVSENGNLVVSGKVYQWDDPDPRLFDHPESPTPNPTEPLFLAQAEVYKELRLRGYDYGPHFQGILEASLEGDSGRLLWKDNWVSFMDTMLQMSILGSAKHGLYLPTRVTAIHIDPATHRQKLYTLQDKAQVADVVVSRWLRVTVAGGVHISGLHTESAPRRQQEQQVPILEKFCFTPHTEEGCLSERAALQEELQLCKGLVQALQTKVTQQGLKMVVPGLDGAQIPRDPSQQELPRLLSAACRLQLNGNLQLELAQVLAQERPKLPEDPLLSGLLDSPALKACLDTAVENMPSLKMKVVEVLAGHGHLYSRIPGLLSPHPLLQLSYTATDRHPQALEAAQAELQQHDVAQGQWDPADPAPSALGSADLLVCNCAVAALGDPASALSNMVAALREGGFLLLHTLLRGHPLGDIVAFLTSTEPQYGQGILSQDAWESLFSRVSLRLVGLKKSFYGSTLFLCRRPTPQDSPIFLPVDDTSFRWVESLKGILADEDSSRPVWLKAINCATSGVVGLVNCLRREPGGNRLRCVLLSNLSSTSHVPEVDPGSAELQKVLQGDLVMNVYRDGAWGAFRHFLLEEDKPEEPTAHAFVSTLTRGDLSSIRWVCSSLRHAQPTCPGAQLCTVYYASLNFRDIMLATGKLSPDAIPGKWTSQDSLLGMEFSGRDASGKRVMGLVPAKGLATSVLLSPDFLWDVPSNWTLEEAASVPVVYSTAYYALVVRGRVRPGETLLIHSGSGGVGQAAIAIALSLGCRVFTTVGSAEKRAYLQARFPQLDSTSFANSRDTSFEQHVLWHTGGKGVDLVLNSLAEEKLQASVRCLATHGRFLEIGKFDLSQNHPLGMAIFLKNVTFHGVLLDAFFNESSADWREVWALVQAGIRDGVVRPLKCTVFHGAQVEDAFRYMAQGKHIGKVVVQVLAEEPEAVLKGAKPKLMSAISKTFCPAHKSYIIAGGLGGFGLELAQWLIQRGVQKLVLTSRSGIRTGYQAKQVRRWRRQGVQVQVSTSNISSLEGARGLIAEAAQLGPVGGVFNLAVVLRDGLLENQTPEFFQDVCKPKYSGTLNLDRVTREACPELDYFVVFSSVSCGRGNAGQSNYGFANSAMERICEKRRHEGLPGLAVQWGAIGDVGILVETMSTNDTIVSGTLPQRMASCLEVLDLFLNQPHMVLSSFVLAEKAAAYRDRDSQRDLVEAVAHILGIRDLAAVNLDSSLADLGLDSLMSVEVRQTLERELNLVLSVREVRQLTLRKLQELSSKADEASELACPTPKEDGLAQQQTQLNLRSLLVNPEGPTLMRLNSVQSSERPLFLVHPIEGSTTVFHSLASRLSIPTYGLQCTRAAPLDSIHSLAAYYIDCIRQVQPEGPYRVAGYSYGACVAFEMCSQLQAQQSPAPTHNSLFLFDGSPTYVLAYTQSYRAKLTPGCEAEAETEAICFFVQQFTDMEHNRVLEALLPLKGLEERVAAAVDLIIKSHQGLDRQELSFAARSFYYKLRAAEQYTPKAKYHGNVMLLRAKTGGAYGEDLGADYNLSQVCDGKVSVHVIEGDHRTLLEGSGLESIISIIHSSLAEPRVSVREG
parameter: pIC50
Numbers only, as −log10 of the molar value.

State recorded pIC50 with Fatty acid synthase (Homo sapiens), entry C=C/C(C)=C/C1(C)SC(O)=C(C)C1=O (racemic) , no comment.
3.84

---

Test system: Mycobacterium tuberculosis
Test: Inhibitory activity against Mycobacterium tuberculosis H37Rv
Type: functional
Please go through the items and note down their MIC.
One number for each entry, in µM.

Answered examples (5):
1. CCCCCCC1(C)SC(O)=C(C)C1=O (configuration not stated)	1000
2. CC1=C(O)C(C)(Cc2ccc3ccccc3c2)SC1=O (configuration not stated)	500
3. CCCCCCCCCCCCCC1(C)SC(O)=C(C)C1=O (configuration not stated)	500
4. C=C/C(C)=C/[C@@]1(C)SC(=O)C(C)=C1O	62.5
5. CCCCCCCCCCC(C)C1(C)SC(O)=C(C)C1=O (configuration not stated)	500

Record MIC per entry; entries follow.
1. CC1=C(O)C(C)(Cc2ccc(C(F)(F)F)cc2)SC1=O (configuration not stated)
2. CC1=C(O)C(C)(Cc2ccc(C(C)(C)C)cc2)SC1=O (configuration not stated)
3. C=C/C=C/C1(C)SC(=O)C(C)=C1O (configuration not stated)

[1000, 1000, 1000]

---

Tested on: Escherichia coli
Test: Inhibitory activity against Escherichia coli ANSI
Type: functional
parameter: MIC

Answered examples (3):
1. CC[C@H](C)CC1(C)SC(O)=C(C)C1=O (stereo partly specified)	> 1000 µM
2. CC/C(C)=C/[C@@]1(C)SC(O)=C(C)C1=O	> 200 µM
3. CC1=C(O)C(C)(Cc2cccc(Cl)c2)SC1=O (stereo unspecified)	> 1000 µM

Record MIC per entry; entries follow.
1. CCC(C)C[C@@]1(C)SC(O)=C(C)C1=O (stereo partly specified)
2. CCCCCCCCCCCCCC1(C)SC(O)=C(C)C1=O (stereo unspecified)

> 200 µM
> 200 µM

---

Molecular target: Mycobacterial beta-ketoacyl-[acyl-carrier-protein] synthase III (Mycobacterium tuberculosis, UniProt P9WNG3)
Sequence (P9WNG3 whole entry): as the sequence (P9WNG3 whole entry) above
parameter: IC50

Answered examples (3):
1. CCCCCCCCCCCCCC1(C)SC(O)=C(C)C1=O (centres undefined)	80 µM
2. CC1=C(O)C(C)(Cc2ccc3ccccc3c2)SC1=O (centres undefined)	> 100 µM
3. CC1=C(O)C(C)(CCc2ccccc2)SC1=O (centres undefined)	> 1000 µM

Record IC50 per entry; entries follow.
1. CC1=C(O)C(C)(Cc2ccc(F)cc2)SC1=O (centres undefined)
2. CC/C=C/CC1(C)SC(O)=C(C)C1=O (centres undefined)
3. CC1=C(O)C(C)(Cc2c(C)cc(C)cc2C)SC1=O (centres undefined)
4. CC1=C(O)C(C)(Cc2cc(C)ccc2C)SC1=O (centres undefined)
5. CC1=C(O)C(C)(Cc2ccc(C)cc2)SC1=O (centres undefined)
6. CCC(C)C1(C)SC(O)=C(C)C1=O (centres undefined)
7. CCCCCCCCCCCCCCC1(C)SC(O)=C(C)C1=O (centres undefined)

["> 100 µM", "> 1000 µM", "> 1000 µM", "> 1000 µM", "> 1000 µM", "> 100 µM", "80 µM"]

Record IC50 per entry; entries follow.
1. CCCCCCCCC1(C)SC(O)=C(C)C1=O (centres undefined)
2. CC1=C(O)C(C)(Cc2ccc(C(F)(F)F)cc2)SC1=O (centres undefined)

> 100 µM
> 100 µM

---

Biological target: 3-oxoacyl-[acyl-carrier-protein] synthase 3 (Escherichia coli) (UniProt C3TDZ2)
Assay: Inhibitory activity against FabH from Escherichia coli ANSI at 100 uM
Active and inactive are the calls of the source. No cut-off for these calls is given here.
parameter: inhibition

Answered examples (5):
1. CC1=C(O)C(C)(C2CCCC2)SC1=O (stereo unspecified)	inactive
2. CC1=C(O)SC(C)C1=O (stereo unspecified)	inactive
3. CC(C)=CCC/C(C)=C/CC/C(C)=C/CC1(C)SC(O)=C(C)C1=O (stereo unspecified)	< 30%
4. C=CC(C)CC1(C)SC(O)=C(C)C1=O (stereo unspecified)	inactive
5. CCC(C)C1(C)SC(O)=C(C)C1=O (stereo unspecified)	inactive

Record inhibition per entry; entries follow.
1. C=C(C)CC1(C)SC(O)=C(C)C1=O (stereo unspecified)
2. CC1=C(O)C(C)(Cc2ccc(Cl)cc2Cl)SC1=O (stereo unspecified)
3. CC1=C(O)C(C)(C/C=C/c2ccccc2)SC1=O (stereo unspecified)
4. CC1=C(O)C(C)(C2CCCCC2)SC1=O (stereo unspecified)

["inactive", "inactive", "inactive", "inactive"]

Record inhibition per entry; entries follow.
1. CC1=C(O)C(C)(CC2CC2)SC1=O (stereo unspecified)
2. CC1=C(O)SC(C)(C(C)C)C1=O (stereo unspecified)

1: < 30%; 2: inactive
